FYI, the data here is from PubChem BioAssay.

assay: Restrictive medium S. cerevisiae growth inhibition, OD615, pilot screen of yeast lifespan reduction project, restrictive growth control (AID 706); settings: OD615, 48 h, at 10 µM, active compounds read high;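 note: modified DeaD lifespan yeast strain shifted to restrictive glucose medium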
VALUE TYPE: growth inhibition (%)
Numbers only, in %.

Record excerpt, results attached:
[[record]]
mol_smiles = "C=C(C)CSc1nc2c(c(=O)[nH]c(=O)n2C)n1CCC(C)C"
recorded_result = -22.9

[[record]]
mol_smiles = "O=C(Cn1cc2c(n1)CCCCC2)NCc1ccccc1"
recorded_result = 0.525


// next item, growth inhibition requested
Q: Look up growth inhibition: "CCn1ccc(C(=O)Nc2ccc(Cl)cn2)n1"
Ans: 11.6
